FYI, the data here is from the nanobody polyreactivity screen of Harvey et al. (2022).

- assayMethodText: yeast display, Sf9 membrane polyspecificity reagent, FACS + sequencing; frameworks hold sequencing errors
reportedProperty: polyreactivity (PSR sort gate)

constructSequence | reportedProperty | dataValue
QVQLVESGGGLVQAGGSLRLSCAASGFTFWDYAMGWYRQAPGKERELVAAISWSGGSTYYADSVKGRFTISRDNAKNTVYLQMNSLKPEDTAVYYCNAVHYSHHGYDYWGQGTQVTVSS | polyreactivity (PSR sort gate) | low polyreactivity
QVQLVESCGGLVQAGGSLRLSCAASGIIFEGNTLGWYRQAPGKEREFVAAISRNGGSTSYADSVKGRFTISRDNAKNTVYLQINSLKPEDTAVYYCAADVESFWGWRYEYWGQGTQVTVSS | polyreactivity (PSR sort gate) | low polyreactivity

###

- assayMethodText: yeast display, Sf9 membrane polyspecificity reagent, FACS + sequencing; frameworks hold sequencing errors

constructSequence | polyreactivity (PSR sort gate)
QVQLVESGGGLVQAGGTLRLSWAASGSNFGFYTMGWYRLAPGKERELVAAITWSDSSTYADSVKGRYTISRDNAKNTVYLQMNSLKPEDTAVYYCNADTTTVEYYPFHYYTYDYWGQGTQVTVSS | low polyreactivity
QVQLVESGGGLVQAGGSRRLSCAASGSTFRGNAMGWYRQAPGKERELVAAITWSGDDTYYADSVKGRFTISRDNAKNTVYLQMNSLKPEDTAVYYCAADLAAFTLAVAYTYDYWGQGTQVTVSS | low polyreactivity

###

- assayMethodText: yeast display, Sf9 membrane polyspecificity reagent, FACS + sequencing; frameworks hold sequencing errors
reportedProperty: polyreactivity (PSR sort gate)

Below are worked cases with known answers.
constructSequence | polyreactivity (PSR sort gate)
QVQLVESGGGLVQAGGSLRLSCAASGITFWSYAMGWYRQAPGKERELVAAITWRGGSTYYADSVKGRFTISRDNAKNTVYLQMNSLKPEDTAVYYCNAVYRRDGYNYWGQGTQVTVSS | high polyreactivity
QVQLVESGGGLDQAGGSLRLSCAAAGITFTYYAMGWYRPAPGKERELVASITIGGGSTYYADSVKVRFTISRDNAKNTVYLQMKSLKPEDTAVYYCNAAFSVRHLYRYDYWGQGTQVTVSS | low polyreactivity
QVQLVESGGGLVQAGGSLRLSCAASGRIFEHNAMGWSRQAPGKEMEFVAAISSSGGSTYYADSVKGRFTISRDNAKNTVYLQMNSLKPEDTAVYYCNAGSTYYERNYWGQGTQVTVSS | low polyreactivity
QVQLVESGGGLVQAGGSLRLSCAASGITIYKYAMGWYRQAPGKERELVAAITRGGSTNYADSVKGRFTISRDNAKNTVYLQMNSLKPEDTAVYYCNKVYHWQSPGFGYGYWGQGSQVTVSS | high polyreactivity

polyreactivity (PSR sort gate) for QVQLVESGGGLVQAGGSLRLSCAASGFYFYSYAMGGYRQAPGKERELVAVISGSGGSTYYADSVKGRFTISRDNAKNTVYLQMNSLKPEDTAVYYCAARNQGNIYGYWGQGTQVTVSS is high polyreactivity

polyreactivity (PSR sort gate) for QVQLVESGGGLVQAGGSLRLSCAASGRIFRYYAMGWYRQAPGKERELVARITSGGSTYYADSVKGRFTLSRDNAKNTVYLQMNSLKPEDTAVYYCAAETTRWHPWYDYWGQGTQVTVSS is high polyreactivity

polyreactivity (PSR sort gate) for QVQLVESGGGLVQAGGSLRLSCAASGRTSRIYAMGLYRQAPGKERELVASISRRGGITYYADSVKGRFTISRDNAKTTVDFQMTSLKPEDTAVYYSASYYTNKVPARYYWGQGTEVTVSS is high polyreactivity

###

- assayMethodText: yeast display, Sf9 membrane polyspecificity reagent, FACS + sequencing; frameworks hold sequencing errors
reportedProperty: polyreactivity (PSR sort gate)

constructSequence | polyreactivity (PSR sort gate)
QVQLVESVGGLVQAGGSLRLSCAASGITIADNAMGWYRQAPRKERELVAAITSGGSTYYADAVKGRFTISRDNAKNTVYFQLNSLKPEDTGVYYCIVRVRRLFYWARLVAYDYWGQGSQVTVSS | high polyreactivity
QVQLVESGGGLVQAGGSLRLSCAASGSIFVANAMGWYRQAPVKERELVAAISRRGGSTYYADSVKGRFTISRDNAKNTVYLQMNSLKPEDTAVYYCAAEDVYEYDYWGQGTQVTVSS | high polyreactivity
QVQLVESGGGLVQAGGSLRLSCAASGLTFSLNAMGGYRQAPGKERELVAAIRGSGGSTYYADSVKGRFTISRDNAKNTVYLQMNSLKPEDTAVYYCNADQLVWQRYGVLYEYDYWGQGTQVTVSS | high polyreactivity
QVQLVDSGGGLVQAGGSLRLSCAASGSTVQYYAMGWYRQAPGKERELVAAITHSGTRTYYADSVKGRFTISRDNAKNTVYLQINSLKPEDTAVYYCAARGYGKYDYWGQGTQVTVSS | high polyreactivity
QVQLVESGGGLVQAGGSLRLSCAASGGIFSSYAMGWYRQAPGKERELVATITSRGGSTYYADSVKGRFTISRDNAKNTVYLQMNSLKPEDTAVYYCAKEYRYYRRRYDYWGQGTQVTVSS | high polyreactivity

polyreactivity (PSR sort gate) for QVQLVESGGGLVQAGGSLRLSCAASGLTFWGNTMGWYRQAPGKERELVAAISSGGITYYADSVKGRFTISRDNANNTVYLLMNSLKPEETAVYYCIGVFSFVPHEMDYWGLGTQVTVSS is high polyreactivity

polyreactivity (PSR sort gate) for QVQLVESGGGLVQAGGSLRLSCAASGSIFRGYAMGWYRQAPGKERELVAVITSGGSTDYADSVKGRFTISRDNAKNTVYLQMNSLKPEDTAVYYCAALPGGYYDRGEYDYWGQGTQVTVSS is low polyreactivity

polyreactivity (PSR sort gate) for QVQLVESGGGLVQAGGSLRLSCAASGRIFSAYAMGWYRQAPGKERELVAANSRSGGRTYYADSVKGRFTISRDNAKNTVYLQMNSLKPDDTAVYYCAVLWHGRRPLYKLRTGPEYDYWGQGTQVTVSS is high polyreactivity

polyreactivity (PSR sort gate) for QVQLVESGGGLVQAGGSLRLSCAASGFTFRSYAMGWYRQAPGKVRELVAAISLGGTSTYYADSVKGRFTISRDNAKNTVYLPMNSLKPEDTAVYYCAARSYGHYGYWGQGTQVTVSS is high polyreactivity

polyreactivity (PSR sort gate) for QVQLVESGGGLVQAGGSLRLSCAASGRTSYGYAMGWYRQAPGKERDLFAAITYGGGSTYYADTVKGRFTISRDNANNTVYLQMNSLIPEDTALYYCAADRTGSTLYTISYYYWGQGTQVTVSS is low polyreactivity

polyreactivity (PSR sort gate) for QVQLVESGGGLVQAGGSLRLSCAASGSIFGYYAMGWYRQAPGKERELVAAITTRGGRTYYADSVKGRFTISRDNAKNTVYLQMNSLKPEDTAVYYCAARTGRGRYDYWGQGTQVTVSS is high polyreactivity

polyreactivity (PSR sort gate) for QVQLVESGGGLVQAGGSLRLSCAASGGTFNTYAMGWYRQAPGKERELVAAITSSGGSTFYADSVKGRFTISRDNAKNTVYLQMNSLKPEDTAVYYCAAKSYWTIVYRHPGYYYWGQGTQVTVSS is low polyreactivity

polyreactivity (PSR sort gate) for QVQLVESGGGLVQAGGSLRLSCAASGSTFWPYAMGWYRQAPGKERELVAAISSSGGSTYYADSVKGRFTISRDNAKNTVYLQMNSLKPEDTAVYYCNKDYHRPYGGGSKGDYWGQGTLVTVSS is low polyreactivity

###

- assayMethodText: yeast display, Sf9 membrane polyspecificity reagent, FACS + sequencing; frameworks hold sequencing errors
reportedProperty: polyreactivity (PSR sort gate)

constructSequence | reportedProperty | dataValue
QVQIVESGGGLVQAGGSLRLSCAASGRIIKGYAMGWYRQAPGKDMELVADISEDGGSTYYADSVKGRFTISRDNAKNTVYLQMNSLKTEDTAVYFCAAEYYVVNYAIGYDYWGQGTQVTVSS | polyreactivity (PSR sort gate) | low polyreactivity
QVQLVESGGGLVQAGGSLRLSCAASGSIFGYYTMGWYIQAPGKERELVARITRGGSTYYADSVKGRFTISRDNAKNTVYLQLNSLKPEDTAVYYCAARRVNAGWTYGLRGNYWGQGTQVTVSS | polyreactivity (PSR sort gate) | low polyreactivity

###

- assayMethodText: yeast display, Sf9 membrane polyspecificity reagent, FACS + sequencing; frameworks hold sequencing errors
reportedProperty: polyreactivity (PSR sort gate)

constructSequence | polyreactivity (PSR sort gate)
QVQLVESGGGLVQAGGILLLSCAASGRTFRVNTMGWYRQAPGTESELVAAISYSGASTYYADSVKGRFTISRDNAKNTVYLQMNSLKPEDTAVYYCAAAVGVALNDYWGQGTQVTVSS | high polyreactivity
QVQLVESGGGLVQAGGTLRLICAASGRISLRNGMGWYRQAPRKERELVAAITSGSSTDYADSVKGRFTISRDNAKNTVYLQMNSLKPEDTAVYYCAKDLLQSGPGAGRYDYWGQGTQVTVSS | low polyreactivity
QVQLVESGGGLVQAGGSLRLSCAASGRTIYYYAMGWYRQAPGKEREFVAAISWHGGSTYYADSVKGRFTISRDNAKNTVYLQMNSLKPEDTAVYYCAAERYDRVGFDYWGQGTQVTVSS | low polyreactivity
QVQLVESGGGLVQAGGSLRLSCAASGFILDTYGMGWYRQAPGKERELVAAISQSDVSTYYADSVKGRFTISRYNAKNTVYLQMNSLKPEDTAVYYCAADRAGLRWFWQVLYDYWGQGTQVTVSS | low polyreactivity
QVQLVESGGGLVQAGGSLRLSCAASGFIFKSYAMGWYRQAPGKERELVAAITRGDNTNYADSVKGRFTISRDNAKNTFYLQMNSLKPEDTAVYYCAADRYTVRMDYWGQGTQVTVSS | high polyreactivity
QVQLVESGGGLVQAGGSLRLSCAASGSTFYHYAMGWYRQAPGKERELVAAISTGGSTYYADSVKGRFTISRDNAKNTVYLQMNSLKPEDTAVEYCNARYIGGYGYWGQGTQVTVSS | low polyreactivity
QVQLVESAGGLVQAGGSLRLSCDASGRILKYYDIGWYRQAPGKEWELVAAISVSGTSTYYADSVKGRFTISRDNAKNTVYLQMNSLKPEDTAVYYCATATGRYSFDYWGQGTQVTVSS | low polyreactivity
QVQLVESGGGLVQAGGSLRLSCAASGNILSVYTLGWYRQAPGKERELVANITYSGDRTYADSVQVRFTISRDNAKTTVYLQMKILKPEDTAVYYCSKDGYPTGGPYWGGMDYWGQGTQVTVSS | low polyreactivity
QVQLVESGGGLVQAGGSLRLSCAASGITFVRNAMGWYRQAPGKEREFVAAISGSGVSTYADSVKGRFTISRDNAKNTVYLQMNSLNPEDTAVYYCARDFPWSYAWYDYWGQGTQVTVSS | low polyreactivity
QVQLVESGGGLVQAGGSLRLSCAASGGTFRKNTMGWYRQAPGKERELVAAITRRADRTYYADSVKGRFTISRDNAKNTVYLQMNSLKPEDTAVYYCNAPPPPTKVGGYDYWGQGTQVTVSS | high polyreactivity

Then this sequence:
polyreactivity (PSR sort gate) for QVQLVESGVRLVQAGGSLRLTCAASGNTFVAYAMGWYRQAPGKERDLVAGITRGGTTYYADSVKGRFTISRDNAKNSVYLQMNSLKPEDTAEYDCAARLGYRYNYWGQGTQVTVSS is high polyreactivity
